The entries below come with measured Ki values attached.
- target-of-assay: recombinant human melanocortin-4 receptor (hMCR-4) in membrane homogenates of HEK-293 cells (human) (UniProt P32245)
- Sequence (P32245 whole entry): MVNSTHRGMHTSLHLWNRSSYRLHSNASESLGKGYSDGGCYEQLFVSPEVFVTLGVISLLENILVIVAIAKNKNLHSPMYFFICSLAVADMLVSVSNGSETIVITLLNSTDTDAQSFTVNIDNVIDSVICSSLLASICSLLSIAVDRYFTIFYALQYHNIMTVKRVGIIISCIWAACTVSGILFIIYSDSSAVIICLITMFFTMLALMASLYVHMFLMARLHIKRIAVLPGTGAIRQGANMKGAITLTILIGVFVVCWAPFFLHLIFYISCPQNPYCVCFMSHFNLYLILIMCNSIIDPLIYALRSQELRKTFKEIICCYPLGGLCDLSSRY
- method-notes: competitive inhibition of [I125]-NDP-alpha-MSH, hMCR-4 HEK-293 membranes
[ ]: non-standard residue; d: D form. Nle = CCCC[C@H](N)C(=O)O; Orn = NCCC[C@H](N)C(=O)O
measurement-kind: Ki (nM)

>  <binder>
Ac-[Nle]AH[dF]RA[dW]-NH2 (SMILES CCCC[C@H](NC(C)=O)C(=O)N[C@@H](C)C(=O)N[C@@H](Cc1c[nH]cn1)C(=O)N[C@H](Cc1ccccc1)C(=O)N[C@@H](CCCNC(=N)N)C(=O)N[C@@H](C)C(=O)N[C@H](Cc1c[nH]c2ccccc12)C(N)=O) [Ac-Nle-Ala-His-D-Phe-Arg-Ala-D-Trp-NH2]

>  <measurement-kind>
Ki

>  <readout-number>
215

$$$$
>  <binder>
Ac-[Nle]A[Orn][dF]RAW-NH2 (SMILES CCCC[C@H](NC(C)=O)C(=O)N[C@@H](C)C(=O)N[C@@H](CCCN)C(=O)N[C@H](Cc1ccccc1)C(=O)N[C@@H](CCCNC(=N)N)C(=O)N[C@@H](C)C(=O)N[C@@H](Cc1c[nH]c2ccccc12)C(N)=O) [Ac-Nle-Ala-Orn-D-Phe-Arg-Ala-Trp-NH2]

>  <measurement-kind>
Ki

>  <readout-number>
7580

$$$$
>  <binder>
Ac-[Nle]AH[dF]RP[dW]-NH2 (SMILES CCCC[C@H](NC(C)=O)C(=O)N[C@@H](C)C(=O)N[C@@H](Cc1c[nH]cn1)C(=O)N[C@H](Cc1ccccc1)C(=O)N[C@@H](CCCNC(=N)N)C(=O)N1CCC[C@H]1C(=O)N[C@H](Cc1c[nH]c2ccccc12)C(N)=O) [Ac-Nle-Ala-His-D-Phe-Arg-Pro-D-Trp-NH2]

>  <measurement-kind>
Ki

>  <readout-number>
650

$$$$
